Recorded melting point for the following compounds

Consider the following illustrative entries.
SMILES STR: Cc1cc(N2CCN(Cc3ccc(F)cc3)C2=O)sc1C(=O)NCc1cccnc1
OBSERVED VALUE: 119 to 120 °C
//
SMILES STR: O=C(O)c1ccccc1COc1cccc(Cl)c1
OBSERVED VALUE: 154 to 155 °C

Prompt: GET /values?readout=melting point&item= "O=c1[nH]c(=S)[nH]c(-c2ccccc2)c1Cc1c(O)ccc2ccccc12"
Response: 253 to 255 °C

Prompt: Dear colleague, I am looking for the recorded melting point of the following compound: "COc1cc(OC)nc(NC(=O)NS(=O)(=O)c2cccc3cccnc23)n1"
Response: 175 to 177 °C

Prompt: Dear colleague, I am looking for the recorded melting point of the following compound: "CC(C)n1nc(-c2c(-c3ccccc3)nn3ccc(OCC(=O)Nc4ccccc4)cc23)ccc1=O"
Response: 208 to 209 °C

Prompt: Look at this compound and give its reported melting point. "COc1cc2ncc(C#N)c(Nc3cccc(CO)c3)c2cc1OC"
Response: 250 to 255 °C

Prompt: # input compound: "CCCc1nc2c(N)nc3ccccc3c2n1CC1(O)CCS(=O)(=O)CC1" ; wanted: its melting point
Response: > 250 °C

Prompt: Can you share its melting point? I mean this compound: "CN(C)CCN(c1ccccc1NCCOc1ccc(Cl)cc1)S(=O)(=O)c1ccc(Cl)cc1"
Response: 99 °C

###

Let's look at some compounds and their measured melting point.

COMPOUND: CC(C)(C)c1cc(C(C)(C)C)c2oc(-c3cccc([N+](=O)[O-])c3O)nc2c1
melting point: 148 to 150 °C
//
COMPOUND: COC(=O)C(O)C(Sc1cc(Oc2cccc(C)c2)ccc1N)c1ccc(OC)cc1 (configuration not stated)
melting point: 112 to 115 °C
//
COMPOUND: CCCN1CC(OCC2CC2)(C(F)(F)F)c2cc(Cl)ccc2NC1=O (configuration not stated)
melting point: 156 to 158 °C

Prompt: I would be grateful if you could share the reported melting point for "O=Cc1ccc(OCCCc2ccccc2)c([N+](=O)[O-])c1" .
Response: 82.5 °C

Prompt: Bench note: what melting point did "OC(Cc1nc[nH]n1)(Cc1nc[nH]n1)c1ccc(Cl)cc1Cl" show?
Response: 182 to 185 °C

Prompt: Given CC(C)(C)c1cc(-c2cncc(C3SC(N4CCOCC4)=NC3=O)c2)ccc1O (configuration not stated) , state its recorded melting point.
Response: 231 to 234 °C

Prompt: What value of melting point has been reported for the following compound? "CC(=O)OC(OC(C)=O)c1ccc([N+](=O)[O-])cc1"
Response: 124 to 126 °C

###

Overview of recorded melting point for various compounds
Enter your answer as a number in °C; do not include the unit.

SMILES STR: O=C(NC(=O)c1c(F)cccc1F)Nc1ccc(F)c(C(F)(F)F)c1Cl
melting point, °C: 214

Could you now consider this next compound?
Prompt: What measured melting point goes with "CN1CCN(c2ccc3nc(N)c(C#N)c(O)c3c2)CC1" ?
Response: 156

###

PROPERTY NAME: melting point

Past entries and their recorded results:
COMPOUND: NC(=O)NCCC[C@H](NCC(O)C(O)C(O)C(O)CO)C(=O)O (some centres undefined)
melting point: 176 °C

COMPOUND: CC(CC#N)N1C(=O)C2(OCCCO2)c2cc(Br)ccc21 (centres undefined)
melting point: 112 to 113 °C

Prompt: For "Cc1ncncc1C(=O)Nc1ccc(-n2nc(C(F)(F)F)cc2C2CC2)nc1" , what is its reported melting point?
Response: 159 to 160 °C

Prompt: Could you tell me which melting point is on file for "COC(=O)[C@H](C)N(C(=O)[C@H](CC(C)C)NC(=O)OC(C)(C)C)c1ccc(F)cc1" ?
Response: 121 to 122 °C

Prompt: Could you share which melting point value was measured for "Cc1ccc(NC(=O)N2CC(Oc3cccc(C(F)(F)F)c3)C2)cc1" ?
Response: 191 to 192 °C

Prompt: Looking for the measured melting point of "O=C(O)C=C(C(=O)c1ccc(Cl)c(Cl)c1)c1ccccc1" , can you help?
Response: 101 to 103 °C

Prompt: Reported melting point, compound "COc1cc(-c2cnc3[nH]cc(C(=O)C(C)(C)OC)c3n2)cc(OC)c1OC" : ____
Response: 238 to 239 °C

Prompt: Fill in the blank: the reported melting point of "Cc1cn(C)cc1C(=O)O" is ____.
Response: 166 to 168 °C

Prompt: Any idea what its melting point is? The compound is O=C1N(CC(O)CO)c2ccccc2C12COc1cc3c(cc12)OCCO3 (centres undefined)
Response: 179 to 181 °C
